All figures here come from patent US11840686B2.

# Tested on: human PKK mRNA
# PROTOCOL DETAILS: Antisense inhibition of human PKK mRNA in HepaRG cells, 3,000 nM (Example 1)
# Format: cell-based
# EXPERIMENTAL SETUP: Table 4; HepaRG cells, electroporation with 3,000 nM antisense oligonucleotide, approx. 24 hours; PKK mRNA by RT-PCR (RTS3454), relative to untreated control cells
Strand notation (5' to 3'): a small letter for the sugar, then the base; units joined by * are phosphorothioate-linked, units joined directly phosphodiester-linked; [ ] holds rarer units or linkages, { } end groups; capitals alone tell only the bases. e = 2'-O-(2-methoxyethyl) (MOE); [5mC] = 5-methylcytosine; d = 2'-deoxy (DNA)

[
  {
    "SUBSTANCE": "531183 (antisense e[5mC]*eA*eT*eA*eA*dG*dA*dA*dT*dG*dT*dG*d[5mC]*dA*d[5mC]*eA*e[5mC]*eA*eA*eA) [compound 531183]",
    "% inhibition [%]": 39
  },
  {
    "SUBSTANCE": "531180 (antisense e[5mC]*e[5mC]*eT*e[5mC]*eT*dT*dA*dA*dG*dT*d[5mC]*dA*d[5mC]*d[5mC]*dA*eT*eA*eG*eA*e[5mC]) [compound 531180]",
    "% inhibition [%]": 45
  },
  {
    "SUBSTANCE": "531190 (eG*e[5mC]*eA*eG*eT*d[5mC]*dA*d[5mC]*dT*d[5mC]*d[5mC]*dT*d[5mC]*dT*dT*e[5mC]*e[5mC]*eA*eG*e[5mC]; antisense) [compound 531190]",
    "% inhibition [%]": 59
  },
  {
    "SUBSTANCE": "531229 (e[5mC]*eT*eT*e[5mC]*eA*dA*dA*dG*d[5mC]*d[5mC]*dA*dG*d[5mC]*dA*dG*eT*eG*eT*eA*eA; antisense) [compound 531229]",
    "% inhibition [%]": 69
  },
  {
    "SUBSTANCE": "531223 (eT*eG*eT*eA*e[5mC]*dT*d[5mC]*dA*d[5mC]*d[5mC]*dG*dG*dT*dA*d[5mC]*eT*e[5mC]*eT*eG*e[5mC]; antisense) [compound 531223]",
    "% inhibition [%]": 58
  }
]

----------
# Tested on: human PKK mRNA
# PROTOCOL DETAILS: Antisense inhibition of human PKK mRNA in HepaRG cells, 3,000 nM (Example 1)
# Assay type: cell-based
# EXPERIMENTAL SETUP: Table 2; PKK mRNA, HepaRG cells, 3,000 nM, electroporation, ~24 h, relative to untreated control cells
Strand notation (5' to 3'): a small letter for the sugar, then the base; units joined by * are phosphorothioate-linked, units joined directly phosphodiester-linked; [ ] holds rarer units or linkages, { } end groups; capitals alone tell only the bases. e = 2'-O-(2-methoxyethyl) (MOE); [5mC] = 5-methylcytosine; d = 2'-deoxy (DNA)
The threshold is inclusive: % inhibition of exactly 50% counts as satisfied; values below receive not satisfied.

[
  {
    "SUBSTANCE": "531010 (eA*eA*eG*eA*eG*dT*dT*dT*dG*dT*dT*d[5mC]*d[5mC]*dT*d[5mC]*e[5mC]*eA*eA*e[5mC]*eA; antisense) [compound 531010]",
    "ANSWER LABEL": "satisfied"
  },
  {
    "SUBSTANCE": "531070 (e[5mC]*eT*eG*eT*eG*dT*dT*dT*dT*d[5mC]*dT*d[5mC]*dT*dA*dA*eA*eA*eT*e[5mC]*e[5mC]; antisense) [compound 531070]",
    "ANSWER LABEL": "satisfied"
  },
  {
    "SUBSTANCE": "531033 (antisense eA*eT*eT*eG*eG*dT*dT*dT*dT*dT*dG*dG*dA*dA*dT*eT*e[5mC]*eA*eG*eT) [compound 531033]",
    "ANSWER LABEL": "satisfied"
  },
  {
    "SUBSTANCE": "482586 (antisense eA*e[5mC]*e[5mC]*e[5mC]*eA*dA*d[5mC]*dA*dG*dT*dT*dG*dG*dT*dA*eT*eA*eA*eA*eT) [compound 482586]",
    "ANSWER LABEL": "not satisfied"
  },
  {
    "SUBSTANCE": "531062 (antisense e[5mC]*eA*eG*eG*eT*dT*dG*d[5mC]*dT*d[5mC]*d[5mC]*d[5mC]*dT*dG*d[5mC]*eG*eG*eG*e[5mC]*eA) [compound 531062]",
    "ANSWER LABEL": "not satisfied"
  }
]

----------
# Test system: human PKK mRNA
# PROTOCOL DETAILS: Antisense inhibition of human PKK mRNA in HepaRG cells, 1,000 nM, MOE/deoxy/cEt oligonucleotides (Example 3)
# Format: cell-based
# EXPERIMENTAL SETUP: Table 20; HepaRG cells, electroporation with 1,000 nM antisense oligonucleotide, approximately 24 hours; PKK mRNA by RT-PCR (RTS3454), relative to untreated control cells
Strand notation (5' to 3'): a small letter for the sugar, then the base; units joined by * are phosphorothioate-linked, units joined directly phosphodiester-linked; [ ] holds rarer units or linkages, { } end groups; capitals alone tell only the bases. e = 2'-O-(2-methoxyethyl) (MOE); k = constrained ethyl (cEt); [5mC] = 5-methylcytosine; d = 2'-deoxy (DNA)
Please mark True if the recorded % inhibition is equal to or greater than 70%, and False if it falls below.

[
  {
    "SUBSTANCE": "547917 (eA*e[5mC]*k[5mC]*d[5mC]*dT*dG*dG*d[5mC]*dA*dA*d[5mC]*dA*dT*k[5mC]*k[5mC]*eA; antisense) [compound 547917]",
    "SYSTEM UNDER TEST": "human PKK mRNA",
    "ANSWER LABEL": "False"
  },
  {
    "SUBSTANCE": "547915 (eT*eG*kG*d[5mC]*dA*dA*d[5mC]*dA*dT*d[5mC]*d[5mC]*dA*d[5mC]*kA*kT*e[5mC]; antisense) [compound 547915]",
    "SYSTEM UNDER TEST": "human PKK mRNA",
    "ANSWER LABEL": "False"
  },
  {
    "SUBSTANCE": "547876 (antisense eA*e[5mC]*kA*d[5mC]*dT*dG*d[5mC]*dT*dA*dA*d[5mC]*d[5mC]*dT*kT*kA*eG) [compound 547876]",
    "SYSTEM UNDER TEST": "human PKK mRNA",
    "ANSWER LABEL": "True"
  },
  {
    "SUBSTANCE": "547852 (antisense eA*eT*kA*dA*dA*dT*dG*dT*d[5mC]*dT*d[5mC]*dG*dA*kT*kG*eG) [compound 547852]",
    "SYSTEM UNDER TEST": "human PKK mRNA",
    "ANSWER LABEL": "False"
  },
  {
    "SUBSTANCE": "547863 (antisense eT*eG*kA*d[5mC]*dT*d[5mC]*d[5mC]*dT*d[5mC]*dT*d[5mC]*dA*dT*kA*kT*e[5mC]) [compound 547863]",
    "SYSTEM UNDER TEST": "human PKK mRNA",
    "ANSWER LABEL": "True"
  },
  {
    "SUBSTANCE": "547858 (antisense e[5mC]*eT*k[5mC]*dT*d[5mC]*dA*dT*dA*dT*d[5mC]*dA*dA*d[5mC]*kT*k[5mC]*e[5mC]) [compound 547858]",
    "SYSTEM UNDER TEST": "human PKK mRNA",
    "ANSWER LABEL": "True"
  }
]

----------
# Tested on: human PKK mRNA
# PROTOCOL DETAILS: Dose-dependent antisense inhibition of human PKK in HepaRG cells, 0.19-5.00 uM (Example 5)
# Format: cell-based
# EXPERIMENTAL SETUP: HepaRG cells, 5.00 μM antisense oligonucleotide
Strand notation (5' to 3'): a small letter for the sugar, then the base; units joined by * are phosphorothioate-linked, units joined directly phosphodiester-linked; [ ] holds rarer units or linkages, { } end groups; capitals alone tell only the bases. e = 2'-O-(2-methoxyethyl) (MOE); [5mC] = 5-methylcytosine; d = 2'-deoxy (DNA)

[
  {
    "SUBSTANCE": "547293 (antisense e[5mC]*eA*eT*e[5mC]*eT*dG*dG*d[5mC]*dA*dG*dT*dA*dT*dT*dG*eG*eG*e[5mC]*eA*eT) [compound 547293]",
    "percent inhibition of PKK mRNA, 5.00 μM, %": 70
  },
  {
    "SUBSTANCE": "546897 (eA*eG*eT*eA*eT*d[5mC]*dA*d[5mC]*dT*dG*dT*d[5mC]*d[5mC]*dT*dA*eT*eG*eT*e[5mC]*eA; antisense) [compound 546897]",
    "percent inhibition of PKK mRNA, 5.00 μM, %": 97
  },
  {
    "SUBSTANCE": "546753 (e[5mC]*eT*eG*eG*e[5mC]*dT*d[5mC]*dA*d[5mC]*dT*dA*dT*dA*dG*dG*e[5mC]*e[5mC]*e[5mC]*e[5mC]*eA; antisense) [compound 546753]",
    "percent inhibition of PKK mRNA, 5.00 μM, %": 91
  },
  {
    "SUBSTANCE": "547617 (antisense e[5mC]*eT*eG*eT*e[5mC]*d[5mC]*dT*dA*dT*dA*dT*d[5mC]*dA*d[5mC]*dT*eG*eT*eA*e[5mC]*e[5mC]) [compound 547617]",
    "percent inhibition of PKK mRNA, 5.00 μM, %": 98
  },
  {
    "SUBSTANCE": "546870 (e[5mC]*eT*eG*eT*eA*d[5mC]*d[5mC]*dT*dA*dT*dA*dA*d[5mC]*dT*d[5mC]*eT*eA*eA*e[5mC]*eA; antisense) [compound 546870]",
    "percent inhibition of PKK mRNA, 5.00 μM, %": 91
  },
  {
    "SUBSTANCE": "531231 (eT*eA*eT*e[5mC]*eA*d[5mC]*dT*dG*dT*dA*d[5mC]*dT*dA*dG*dT*eT*eT*e[5mC]*e[5mC]*eT) [compound 531231]",
    "percent inhibition of PKK mRNA, 5.00 μM, %": 97
  }
]
